The measured values listed here are drawn from patent US20240165276A1.

- test-system: recombinant 0N4R Tau fibrils (Homo sapiens (Human))
- Sequence (P10636 other isoform, or with tags, fused parts or gaps): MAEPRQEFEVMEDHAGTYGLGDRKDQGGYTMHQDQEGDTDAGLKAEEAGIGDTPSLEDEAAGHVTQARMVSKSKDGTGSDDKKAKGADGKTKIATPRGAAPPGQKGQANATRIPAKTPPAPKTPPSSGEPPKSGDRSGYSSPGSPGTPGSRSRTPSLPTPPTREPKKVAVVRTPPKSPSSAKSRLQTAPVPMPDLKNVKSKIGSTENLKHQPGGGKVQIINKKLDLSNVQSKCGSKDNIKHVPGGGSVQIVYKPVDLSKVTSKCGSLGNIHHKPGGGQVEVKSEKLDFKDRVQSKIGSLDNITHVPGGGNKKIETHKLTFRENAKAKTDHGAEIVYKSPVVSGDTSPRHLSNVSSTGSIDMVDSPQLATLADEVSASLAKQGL
- assay-method-text: ^3H-THK5117 competition binding to tau fibrils in vitro
- conditions: competition with 3 nM [^3H]-THK5117, 0N4R tau fibrils, 1 h, 22° C.; average if run more than once
Grouping key: IC50. Bins: band A: < 9 nM; band B: ≥ 9 nM and < 20 nM; band C: ≥ 20 nM

These solved cases illustrate the format of a correct answer.
| compound | group |
| --- | --- |
| O[C@@H]1CCCN(c2ccc(-c3cc4cc(OCCOCCOCCF)ccc4[nH]3)cn2)C1 | band B |
| COc1ccc2nc(-c3ccc(N4CC[C@@H](CO)[C@H](O)C4)nc3)sc2c1 | band B |
| OC[C@@H]1CCN(c2ccc(-c3cc4cc(O)ccc4[nH]3)c(F)n2)C[C@H]1O | band C |

Which class does Nc1c(F)ccc2cnc(-n3ccc4ccncc43)cc12 [MK-6420, reference compound] fall in? band C

Which class does `OC[C@@H]1CCN(c2ccc(-c3cc4cc(O)ccc4[nH]3)c(F)n2)C[C@@H]1O` fall in? band C

Which class does `COc1ccc2nc(-c3ccc(N4CC[C@@H](O)[C@@H](O)C4)nc3)sc2c1` fall in? band A

Which class does `COc1ccc2nc(-c3ccc(N4CC[C@@H](O)[C@H](O)C4)nc3)sc2c1` fall in? band B

Which class does `OCC1CN(c2ccc(-c3cc4cc(O)ccc4[nH]3)c(F)n2)C1` fall in? band C

Which class does `O[C@@H]1CCCN(c2ccc(-c3cc4cc(OCCF)ccc4[nH]3)cn2)C1` fall in? band A

Which class does `Oc1ccc2[nH]c(-c3cnc(N4CCC[C@@H](O)C4)nc3)cc2c1` fall in? band C

Which class does `OCCC1CN(c2ccc(-c3cc4cc(O)ccc4[nH]3)c(F)n2)C1` fall in? band A

Which class does `COc1ccc2nc(-c3ccc(N4CC[C@@H](O)C4)nc3)sc2c1` fall in? band B

Which class does `O[C@@H]1CCCN(c2ncc(-c3cc4cc(OCCOCCOCCF)ccc4[nH]3)cn2)C1` fall in? band C

Which class does `Oc1ccc2[nH]c(-c3ccc(N4CCC[C@@H](O)C4)nc3)cc2c1` fall in? band C

Which class does `COC(=O)C1CN(c2ccc(-c3cc4cc(O)ccc4[nH]3)c(F)n2)C1` fall in? band A
